Measured values drawn from patent US20250108054A1 for this set.

Target: tyrosine protein kinase TEC (Homo sapiens)
Sequence (P42680 1-631): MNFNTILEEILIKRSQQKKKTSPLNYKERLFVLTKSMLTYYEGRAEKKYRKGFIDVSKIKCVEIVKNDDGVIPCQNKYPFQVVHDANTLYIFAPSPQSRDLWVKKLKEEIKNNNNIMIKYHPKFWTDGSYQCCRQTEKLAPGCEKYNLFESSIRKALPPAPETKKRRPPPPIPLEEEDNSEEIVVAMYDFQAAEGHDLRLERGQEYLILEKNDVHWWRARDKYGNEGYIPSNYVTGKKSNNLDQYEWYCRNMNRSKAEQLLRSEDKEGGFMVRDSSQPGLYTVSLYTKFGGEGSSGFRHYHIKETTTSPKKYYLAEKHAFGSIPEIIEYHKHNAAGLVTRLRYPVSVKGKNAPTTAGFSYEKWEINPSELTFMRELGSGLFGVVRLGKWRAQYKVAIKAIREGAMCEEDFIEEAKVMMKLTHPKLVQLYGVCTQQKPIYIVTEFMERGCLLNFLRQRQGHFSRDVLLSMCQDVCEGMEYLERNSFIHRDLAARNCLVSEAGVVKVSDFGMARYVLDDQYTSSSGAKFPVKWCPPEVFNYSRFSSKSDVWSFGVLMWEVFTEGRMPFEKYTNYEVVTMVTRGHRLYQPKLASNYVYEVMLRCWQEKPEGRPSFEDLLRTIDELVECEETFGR
quantity.measured: IC50 (nM)
Provide the reading as a plain figure in nM.

Query: Which IC50 is reported for this compound? CC(C)(C=C(C#N)C(=O)N1CCC[C@@H](n2nc(-c3ccc(Oc4ccccc4)cc3F)c3c(N)ncnc32)C1)N1CCN(C2COC2)CC1 (mixture of isomers)
Result: 0.8

###

Target: bone marrow tyrosine kinase on chromosome X (BMX) (Homo sapiens, UniProt P51813)
Sequence (P51813 1-675): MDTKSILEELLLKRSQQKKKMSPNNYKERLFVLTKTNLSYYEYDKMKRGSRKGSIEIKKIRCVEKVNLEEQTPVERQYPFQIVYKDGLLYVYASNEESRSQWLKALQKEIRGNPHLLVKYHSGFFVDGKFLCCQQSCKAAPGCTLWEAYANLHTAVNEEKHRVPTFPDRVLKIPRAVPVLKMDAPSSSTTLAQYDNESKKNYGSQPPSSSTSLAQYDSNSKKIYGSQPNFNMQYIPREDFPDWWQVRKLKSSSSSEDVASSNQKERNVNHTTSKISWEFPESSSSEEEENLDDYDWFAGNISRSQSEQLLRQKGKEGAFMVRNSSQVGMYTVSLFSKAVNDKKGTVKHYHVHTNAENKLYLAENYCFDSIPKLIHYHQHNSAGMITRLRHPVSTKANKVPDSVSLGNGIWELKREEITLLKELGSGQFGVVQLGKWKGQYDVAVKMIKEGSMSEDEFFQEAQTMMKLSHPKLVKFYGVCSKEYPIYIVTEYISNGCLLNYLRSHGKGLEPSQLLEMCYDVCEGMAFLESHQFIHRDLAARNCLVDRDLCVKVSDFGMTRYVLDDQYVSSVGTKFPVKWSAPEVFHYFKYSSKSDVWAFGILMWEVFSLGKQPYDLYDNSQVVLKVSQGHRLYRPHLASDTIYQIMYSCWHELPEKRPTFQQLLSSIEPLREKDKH
quantity.measured: IC50
Include the unit after the number when you answer.

Query: Which IC50 is reported for this molecule? CC(C)(C=C(C#N)C(=O)N1CCC[C@@H](n2nc(-c3ccc(Oc4ccccc4)cc3F)c3c(N)ncnc32)C1)N1CCN(C2COC2)CC1 (mixture of isomers)
Result: 1 nM
